# System: P388 leukemia ip, CD2F1 mice, survival T/C
# assay_notes: NCI In Vivo Anticancer Drug Screen. Data for tumor model P388 Leukemia (intraperitoneal) in CD2F1 (CDF1) mice
# reported_conditions: endpoint: median survival time; dose: 50.0 mg/kg/injection; schedule: Q04DX002 (ip); vehicle: saline with Tween-80; higher = longer survival
Inconclusive results and toxic doses are left out.
I'd appreciate it if you could supply T/C values for the items below.

>  <smiles_str>
CN(C)c1nc(NC=O)nc(N(C)C)n1

>  <T/C>
99 % of control

$$$$
>  <smiles_str>
O=c1c2c([nH]c3c4c(ccc13)NCCC4)CCC2

>  <T/C>
95 % of control

$$$$

Answer for every listed entry: what is its T/C? The entries follow.
1. CC(=C\c1ccc(Cl)c(Cl)c1)/C(C)=N/NC(N)=Nc1ccccc1
2. O=C(Nc1ccc(Cl)cc1)NN1CCCCCC1

Result:
["103 % of control", "98 % of control"]
